studySystem: Peroxisome proliferator-activated receptor gamma (Homo sapiens, UniProt P37231)
pEC50: −log10 of the molar value.
readoutLabel: pEC50

Reference set (2 entries):
- smilesRepresentation: "CCOC(=O)CC1=C(c2ccccc2)c2ccc(OC)cc2C1=O"
  studySystem: "Peroxisome proliferator-activated receptor gamma (Homo sapiens, UniProt P37231)"
  endpointResult: 6.52
- smilesRepresentation: "CCOC(=O)C1=C(c2ccccc2)c2ccc(OC)cc2C1=O"
  studySystem: "Peroxisome proliferator-activated receptor gamma (Homo sapiens, UniProt P37231)"
  endpointResult: 6.52

[A] CCOC(=O)C1=C(c2ccoc2)c2ccc(OC)cc2C1=O
[B] CCOC(=O)C1=C(C23CC4CC(CC(C4)C2)C3)c2ccc(OC)cc2C1=O
Query :: Which entry shows the lesser value of pEC50 here, A or B ? Mark your selection by writing its label.
Result :: B
(B: 5.60, A: 6.00)

###

Each item that follows carries a reported EC50.
studySystem: Peroxisome proliferator-activated receptor gamma (Homo sapiens, UniProt P37231)
Sequence (P37231 whole entry): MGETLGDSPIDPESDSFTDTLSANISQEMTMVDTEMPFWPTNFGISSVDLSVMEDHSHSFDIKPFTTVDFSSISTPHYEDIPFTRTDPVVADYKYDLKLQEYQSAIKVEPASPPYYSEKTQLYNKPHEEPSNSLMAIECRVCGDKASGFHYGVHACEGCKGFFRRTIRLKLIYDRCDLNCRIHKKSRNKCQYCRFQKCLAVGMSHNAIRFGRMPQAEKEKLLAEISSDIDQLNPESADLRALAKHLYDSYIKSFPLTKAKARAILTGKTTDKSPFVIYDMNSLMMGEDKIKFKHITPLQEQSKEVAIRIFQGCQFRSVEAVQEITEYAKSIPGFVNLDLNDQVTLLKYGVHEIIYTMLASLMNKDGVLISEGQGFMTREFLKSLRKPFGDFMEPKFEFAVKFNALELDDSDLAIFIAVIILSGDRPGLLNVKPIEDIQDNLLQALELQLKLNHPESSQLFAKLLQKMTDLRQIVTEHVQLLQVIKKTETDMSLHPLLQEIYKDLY
Report only the number, with the unit nM understood.

Study these solved cases before continuing.
- smilesRepresentation: "CCOC(=O)C1=C(c2ccccc2)c2ccc(OCc3ccccc3)cc2C1=O"
  studySystem: "Peroxisome proliferator-activated receptor gamma (Homo sapiens, UniProt P37231)"
  endpointResult: 220
- smilesRepresentation: "CCOC(=O)C1=C(c2ccccc2)c2ccc(OCCc3ccccc3)cc2C1=O"
  studySystem: "Peroxisome proliferator-activated receptor gamma (Homo sapiens, UniProt P37231)"
  endpointResult: 210

Next compound, EC50 to be filled in.
Query :: Suppose we examine the compound "CCOC(=O)C1=C(c2ccccc2)c2ccc(OCCCc3ccccc3)cc2C1=O" ; what EC50 value has been reported?
Result :: 50

Cited source: ChEMBL document CHEMBL1138934
